Target: Tumor susceptibility gene 101 protein (Homo sapiens)
Test: qHTS Assay for Iinhibitors of HIV-1 Budding by Blocking the Interaction of PTAP/TSG101: Hit Validation (AID 651600); also: nearly all actives have a fitted effect of over 70% in size
Conditions: PTAP peptide/TSG101 UEV interaction, biochemical assay; series mostly up to 57.5 µM
Results filed as inconclusive are left out. Activity calls are given as the source filed them. Calls follow the shape of the dose curve; as a rule, active = well fitted inhibition curve with a large enough effect; inconclusive = small, poorly fitted or top-dose-only effect; inactive = no such curve, though single readings can be large or run the other way.
Could you please pick one outcome from this set? TRUE for active, FALSE for inactive

Check out these entries, answers already filled in.
{"compound": "COc1ccccc1NC(=O)C(C)OC(=O)C1CC(=O)N(c2ccc3c(c2)OCCO3)C1 (stereo unspecified)", "label": "FALSE"}
{"compound": "CC(=O)N1c2ccccc2C(=O)C1N1CCCCC1 (stereo unspecified)", "label": "FALSE"}
{"compound": "CSc1c(C#N)c(N)nc2sc(C(=O)c3ccc(Cl)c(Cl)c3)c(N)c12", "label": "FALSE"}

Turning to the following compound.
query: Which outcome did this test record for the compound CC1CCc2cccc3c2N1c1cc(C#N)c(C#N)cc1O3 (stereo unspecified) ?
result: FALSE
